Substrate: CCn1c(=NN=c2sc3cc(S(=O)(=O)O)ccc3n2CC)sc2cc(S(=O)(=O)O)ccc21
Assay: purified protein
Settings: pH 5.0, 42 °C, 0.1-25 mM substrate
Metric: Km (mM)
Write it as a number; the unit mM goes unstated.

Guide cases for Km, answers given:
ScSLAC (small laccase, SLAC) (Streptomyces coelicolor A3(2); M298F) (protein) AKGITARTAPAGGEVRHLKMYAEKLADGQMGYGFEKGKASVPGPLIEVNEGDTLHIEFTNTMDVRASLHVHGLDYEISSDGTAMNKSDVEPGGTRTYTWRTHKPGRRDDGTWRPGSAGYWHYHDHVVGTEHGTGGIRNGLYGPVIVRRKGDVLPDATHTIVFNDMTINNRKPHTGPDFEATVGDRVEIVMITHGEYYHTFHMHGHRWADNRTGILTGPDDPSRVIDNKITGPADSFGFQIIAGEGVGAGAWMYHCHVQSHSDMGFVGLFLVKKPDGTIPGYEPHEHGGATAKSGESGEPTGGAAAHEHEH : 4.1
ScSLAC (small laccase, SLAC) (Streptomyces coelicolor A3(2); M298L) (protein) AKGITARTAPAGGEVRHLKMYAEKLADGQMGYGFEKGKASVPGPLIEVNEGDTLHIEFTNTMDVRASLHVHGLDYEISSDGTAMNKSDVEPGGTRTYTWRTHKPGRRDDGTWRPGSAGYWHYHDHVVGTEHGTGGIRNGLYGPVIVRRKGDVLPDATHTIVFNDMTINNRKPHTGPDFEATVGDRVEIVMITHGEYYHTFHMHGHRWADNRTGILTGPDDPSRVIDNKITGPADSFGFQIIAGEGVGAGAWMYHCHVQSHSDMGLVGLFLVKKPDGTIPGYEPHEHGGATAKSGESGEPTGGAAAHEHEH : 5.0

For the protein shown here, ScSLAC (small laccase, SLAC) (Streptomyces coelicolor A3(2); M198F/M298F) (protein) AKGITARTAPAGGEVRHLKMYAEKLADGQMGYGFEKGKASVPGPLIEVNEGDTLHIEFTNTMDVRASLHVHGLDYEISSDGTAMNKSDVEPGGTRTYTWRTHKPGRRDDGTWRPGSAGYWHYHDHVVGTEHGTGGIRNGLYGPVIVRRKGDVLPDATHTIVFNDFTINNRKPHTGPDFEATVGDRVEIVMITHGEYYHTFHMHGHRWADNRTGILTGPDDPSRVIDNKITGPADSFGFQIIAGEGVGAGAWMYHCHVQSHSDMGFVGLFLVKKPDGTIPGYEPHEHGGATAKSGESGEPTGGAAAHEHEH , give the reported Km.
1.1
